System: OVCAR-3 ovarian
Experimental protocol: NCI tumour cell line growth inhibition, 48 h
Recorded metric: TGI

The cases that follow already have their TGI on record.
INSERT INTO results (compound, result) VALUES
  ('O=[N+]([O-])c1nccn1CCCNc1ccnc2cc(Cl)ccc12', '> 100 µM'),
  ('CN1CCN(C(=O)c2cc(-c3ccc4ncnc(N5CCc6cc(F)c(Cl)cc65)c4c3)cnc2N)CC1', '1.49 µM'),
  ('CCC1(c2ccccc2)C(=O)N=C(c2ccccc2)N1CCc1ccccc1 (configuration not stated)', '> 100 µM');

Find the measured TGI of CCCP1(=O)C=C(C)C(=C(Cl)Cl)C(C)=C1 (configuration not stated) and report it.
> 100 µM

Please look at this compound and report its TGI: Cc1[nH]c2ccccc2c1C(=O)CC1(O)C(=O)Nc2c(Cl)cc(Cl)cc21 (configuration not stated)
44 µM

Note TGI for the compound shown: `COC1=CC(=O)C2=C(C1=O)[C@H]1CC[C@]3(C)[C@@H](O)CC[C@H]3[C@@H]1CC2`
32.3 µM

Recall and state the measured TGI for Cc1ccccc1-n1c(=O)c2ncn(C3CCCO3)c2n(-c2ccccc2C)c1=S (configuration not stated) .
> 100 µM

Note down TGI recorded for CC1CC(C)C(C#N)N(C)c2ccccc21 (configuration not stated)
> 100 µM

Please give measured TGI of the following entry: `O=C1C=CC2(C=C1)O[C@H](Cc1ccccc1)[C@@H](Cc1ccccc1)O2`
1.17 µM

Please indicate TGI recorded for `O=c1ssc(=Nc2ccccc2)n1-c1ccccc1`
53.1 µM

Return TGI for the following compound: `O=C(O)CN1CCN(CC(=O)O)CC(=O)[O][Hg][O]C(=O)C1`
30.6 µM

Recall and state the measured TGI for `O=C1c2c(c3c4ccccc4[nH]c3c3ccc4ccccc4c23)C(=O)N1CCN1CCNCC1` .
3.48 µM

For the compound `NC(N)=NCC[C@H](NC(=O)OCCCCCn1ccc(=O)[nH]c1=O)C(=O)O` , give its measured TGI value.
> 100 µM

Please give measured TGI of the following entry: `COc1cc2c3c(c1)CCCN3CCC2`
> 10 µM

Give the value of TGI reported for the following: O=C(NC1CCCCC1NC(c1ccccc1)(c1ccccc1)c1ccccc1)C(=O)NC1CCCCC1NC(c1ccccc1)(c1ccccc1)c1ccccc1 (configuration not stated)
> 100 µM

Give the value of TGI reported for the following: `CC(C)NCCCn1c(Sc2cc3c(cc2I)OCO3)nc2c(N)ncnc21`
> 100 µM

State its TGI: COc1cc2c(cc1OC)C1C=NC(C2)c2cc(OC)c(OC)cc21 (configuration not stated)
> 100 µM

Please give the documented TGI of `COc1cccc(OC)c1C(=O)OCc1ccccc1`
> 100 µM

Please look at this compound and report its TGI: COc1c(Br)cc2c(c1OC)C(Br)CCC(Br)(Br)C2=O (configuration not stated)
2.91 µM

Recall and state the measured TGI for `CCCCn1c(N)c(-c2nc3ccccc3o2)sc1=S` .
33.9 µM

Report TGI, nothing else, for this compound: COc1ccc(CC2(O)C3CC4CCC2C4C3)cc1 (configuration not stated)
> 100 µM

Tell us which TGI value is on record for CC(=O)Oc1cc2c(cc1OC(C)=O)OCC(c1ccccc1)C2 (configuration not stated)
58.9 µM
